Test: in situ brain/choroid plexus perfusion: CNS uptake of [^3H]-arginine, [^3H]-ADMA and [^14C]-sucrose (multiple-time and single-time uptake analysis)
Settings: male, BALB/c, mouse, frontal cortex, [3H] ADMA and [14C] Sucrose uptake, 2.5 mins, 5ml/min; mean
Counter-ions that a name gives are not always drawn.
Experimental Readout: Kp at […], 62.5 nM

{"columns": ["Compound", "Observed Value"],
 "data": [
  ["CN(C)C(N)=NCCC[C@H](N)C(=O)O [ADMA, N^G,N^G-dimethylarginine dihydrochloride]", 0.113]
]}

====

Assay: cross-inhibition, in situ perfusion: [^3H]-arginine with 0.5–500 μM unlabelled ADMA
Format: in vivo, mouse
Settings: male, Balb/c, mouse, cerebellum, other: in situ brain perfusion, with unlabelled ADMA 0.5 µM, cerebellum: [14C] Sucrose, + 0.5 uM ADMA, 10 mins, Balb/c ♂, 5ml/min; mean
Experimental Readout: Kp at 10 min

{"columns": ["Compound", "Observed Value"],
 "data": [
  ["OC[C@H]1O[C@@](CO)(O[C@H]2O[C@H](CO)[C@@H](O)[C@H](O)[C@H]2O)[C@@H](O)[C@@H]1O [[^14C]-sucrose, reference compound]", 0.0327]
]}

====

System: [3H]-ADMA transport across the blood-brain and blood-CSF barriers
Experiment: cross-inhibition, in situ perfusion: [^3H]-ADMA with 100 μM unlabelled L-arginine
Assay type: in vivo, mouse
Conditions: male, Balb/c, mouse, caudate nucleus, other: in situ brain perfusion, with 100 µM unlabelled L-arginine, [3H] ADMA + [14C] Sucrose + 100uM Arg, 10 mins, Balb/c ♂, 5ml/min; individual mice; read-out: uptake into caudate nucleus
Counter-ions that a name gives are not always drawn.
Experimental Readout: Kp at 10 min, 62.5 nM

{"columns": ["Compound", "Observed Value"],
 "data": [
  ["CN(C)C(N)=NCCC[C@H](N)C(=O)O [ADMA, N^G,N^G-dimethylarginine dihydrochloride]", 0.0565]
]}

====

Test: cross-inhibition, in situ perfusion: [^3H]-arginine with 0.5–500 μM unlabelled ADMA
Format: in vivo, mouse
Details: male, Balb/c, mouse, CSF, other: in situ brain perfusion, with unlabelled ADMA 100 µM, Arginine / Sucrose uptake, CSF, mean, [3H] Arginine + [14C] Sucrose + 100µM un-labelled ADMA, 10 mins, Balb/c ♂, 5ml/min; mean
Description: Self-inhibition experiments were also performed. […] Cross-competition experiments were also performed. The percentage change in the RTissue uptake values achieved in the absence or presence of an unlabelled inhibitor can be calculated by means of Eq 4. %change=RTissue−RInhibition/RTissue×100 Eq 4 We define RInhibition as the RTissue uptake in the presence of an inhibitor in the artificial plasma. […]
Experimental Readout: Kp at 10 min

{"columns": ["Compound", "Experimental Readout", "Observed Value"],
 "data": [
  ["OC[C@H]1O[C@@](CO)(O[C@H]2O[C@H](CO)[C@@H](O)[C@H](O)[C@H]2O)[C@@H](O)[C@@H]1O [[^14C]-sucrose, reference compound]", "Kp at 10 min", 0.149]
]}

====

Test: cross-inhibition, in situ perfusion: [^3H]-arginine with 0.5–500 μM unlabelled ADMA
Type: in vivo, mouse
Settings: male, Balb/c, mouse, frontal cortex, other: in situ brain perfusion, with unlabelled ADMA 3 µM, Arginine / Sucrose uptake, frontal cortex, [3H] Arginine + [14C] Sucrose + 3 uM ADMA, 10 mins, Balb/c ♂, 5ml/min; single mice

{"columns": ["Compound", "Kp at 10 min"],
 "data": [
  ["OC[C@H]1O[C@@](CO)(O[C@H]2O[C@H](CO)[C@@H](O)[C@H](O)[C@H]2O)[C@@H](O)[C@@H]1O [[^14C]-sucrose, reference compound]", 0.0326]
]}
